The origin of these recorded values is ChEMBL document CHEMBL1122081.

Species on record: Rattus norvegicus
Experiment: Saluretic property (excretion of Na+ in rat); note: test concentration or dose not given here
Format: ADME, organism-based
Settings: in vivo
Here the recorded Saluretic potency is given for each entry.
QUANTITY_MEASURED: Saluretic potency

[[record]]
smi = "CC(C)(C)c1cc(Cl)c2c(c1)CNC(=O)CO2"
reported = "< 0.3 u equiv"

[[record]]
smi = "CC(C)(C)c1cc(Cl)c(O)c(/C=N/N=C(N)N)c1"
reported = "< 0.3 u equiv"

[[record]]
smi = "O=C(NCc1c(O)c(Cl)cc(Cl)c1Cl)C(F)(F)F"
reported = "2.4 u equiv"

[[record]]
smi = "CC(C)(C)c1cc(I)c(O)c(CNC2=NCCN2)c1"
reported = "< 0.3 u equiv"

[[record]]
smi = "CC(C)(C)c1cc(I)c(O)c(CNC2=NCCC2)c1.Cl"
reported = "< 0.3 u equiv"

[[record]]
smi = "CC(C)(C)c1cc(I)c(OS(C)(=O)=O)c(CN)c1.Cl"
reported = "< 0.3 u equiv"

[[record]]
smi = "CC(C)(C)c1cc(Cl)c2c(c1)CNCCO2.Cl"
reported = "< 0.3 u equiv"

[[record]]
smi = "CC(C)(C)c1cc(I)c(OCC(N)=O)c(CN)c1.Cl"
reported = "< 0.3 u equiv"

[[record]]
smi = "CCNS(=O)(=O)Oc1c(I)cc(C(C)(C)C)cc1CN.Cl"
reported = "2.9 u equiv"

[[record]]
smi = "CC(C)(C)c1cc(I)c2c(c1)CNC(=O)O2"
reported = "0.9 u equiv"

[[record]]
smi = "CC(C)(C)OC(=O)NCc1cc(C(C)(C)C)cc(I)c1O"
reported = "< 0.3 u equiv"

[[record]]
smi = "CC(C)(C)c1cc(I)c(O)c(CNS(=O)(=O)O)c1"
reported = "1.5 u equiv"

[[record]]
smi = "CC(C)(C)c1cc(I)c(O)c(CNC2CCCCC2)c1.Cl"
reported = "< 0.3 u equiv"

